Hello, the source for this data is paper PMC2832003, in case you need it.

The following binders are shown together with reported pIC50 values.
molecular target: activin type IIB receptor (ActRIIB), coated on ELISA plates, Q13705; test: ELISA; competition: quantified conditioned media compete with biotinylated inhibin A for ActRIIB coated on the plate
Here pIC50 is given on a logarithmic scale as minus log10 of the concentration in mol/L.

{"columns": ["Binder", "pIC50"],
 "data": [
  ["wild type human inhibin A (α^Hwt/βA), P05111 233-366; P08476 311-426 (complex) chain 1: STPLMSWPWSPSALRLLQRPPEEPAAHANCHRVALNISFQELGWERWIVYPPSFIFHYCHGGCGLHIPPNLSLPVPGAPPTPAQPYSLLPGAQPCCAALPGTMRPLHVRTTSDGGYSFKYETVPNLLTQHCACI chain 2: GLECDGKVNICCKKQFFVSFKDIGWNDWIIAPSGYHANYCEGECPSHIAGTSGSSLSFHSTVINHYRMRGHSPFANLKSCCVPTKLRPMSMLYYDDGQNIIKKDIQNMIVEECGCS", 8.05],
  ["wild type chicken inhibin A (α^Chwt/βA), P43031 217-329; P08476 311-426 (complex) chain 1: SAVPWSPAALSLLQRPSEDVAAHTNCRRASLNISFEELGWDNWIVHPSSFVFHYCHGNCAEGHGLSHRLGVQLCCAALPGTMRSLRVRTTSDGGYSFKYETVPNILAQDCTCV chain 2: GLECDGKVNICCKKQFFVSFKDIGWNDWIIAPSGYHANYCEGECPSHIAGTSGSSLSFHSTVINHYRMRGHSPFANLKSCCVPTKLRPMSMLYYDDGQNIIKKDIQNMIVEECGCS", 8.26],
  ["α^HPWR−/βA mutant inhibin A, P05111 233-366; P08476 311-426 (complex) chain 1: STPLMSWPWSPSALRLLQRPPEEPAAHANCHRVALNISFQELGWERWIVYPPSFIFHYCHGGCGLHIYSLLPGAQPCCAALPGTMRPLHVRTTSDGGYSFKYETVPNLLTQHCACI chain 2: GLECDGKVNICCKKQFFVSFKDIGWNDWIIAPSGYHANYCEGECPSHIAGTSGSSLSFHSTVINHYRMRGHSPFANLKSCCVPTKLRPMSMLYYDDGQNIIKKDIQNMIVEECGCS", 8.53]
]}

From here, focus on the item given below.
[in] Param item = α^Hext−/βA mutant inhibin A, P05111 233-366; P08476 311-426 (complex, here or on the partner: disulfide-linked heterodimer; alpha-subunit N-glycosylated (CHO-expressed)) chain 1: STPLMANCHRVALNISFQELGWERWIVYPPSFIFHYCHGGCGLHIPPNLSLPVPGAPPTPAQPYSLLPGAQPCCAALPGTMRPLHVRTTSDGGYSFKYETVPNLLTQHCACI chain 2: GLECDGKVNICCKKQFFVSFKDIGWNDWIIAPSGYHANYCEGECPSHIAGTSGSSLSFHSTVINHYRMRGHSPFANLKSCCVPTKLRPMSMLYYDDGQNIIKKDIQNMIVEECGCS ; retrieve measured pIC50.
[out] 6.89
